Reference source: ChEMBL document CHEMBL3885881

species: Rattus norvegicus; assay: DrugMatrix - Regimen: Daily Repeat; assay type: toxicity, organism-based, Sprague-Dawley; design: regimen Daily Repeat, gender Male, age 6-8 weeks; conditions: in vivo, po, 0 mg/kg, 120 h, tissue Plasma, route oral GAVAGE, dose level Control, time 5 day, vehicle 100 % WATER

{"columns": ["molecule", "unit-tag", "LACTATE DEHYDROGENASE"],
 "data": [
  ["O=C1NC(=O)C(c2ccccc2)(c2ccccc2)N1 [PHENYTOIN]", "u/L", 389.5],
  ["Cc1cc(NS(=O)(=O)c2ccc(N)cc2)no1 [SULFAMETHOXAZOLE]", "u/L", 168.5],
  ["Nc1ccc(S(=O)(=O)Nc2ccnn2-c2ccccc2)cc1 [SULFAPHENAZOLE]", "u/L", 220.33],
  ["CC(CCc1ccccc1)NCC(O)c1ccc(O)c(C(N)=O)c1 (stereo not given) [LABETALOL]", "u/L", 487.5],
  ["CC(C)(S)[C@@H](N)C(=O)O [PENICILLAMINE]", "u/L", 157],
  ["CC1(C)S[C@@H]2[C@H](NC(=O)[C@H](N)c3ccc(O)cc3)C(=O)N2[C@H]1C(=O)O [AMOXICILLIN]", "u/L", 129.33],
  ["NCC1(CC(=O)O)CCCCC1 [GABAPENTIN]", "u/L", 166.83],
  ["NNC(=O)c1ccncc1 [ISONIAZID]", "u/L", 191.17],
  ["C[C@]12Cc3c[nH]nc3C[C@@H]1CC[C@@H]1[C@@H]2CC[C@@]2(C)[C@H]1CC[C@]2(C)O [STANOZOLOL]", "u/L", 146.17],
  ["CNCCC=C1c2ccccc2CCc2ccccc21 [NORTRIPTYLINE]", "u/L", 389.5]
]}
